target: human Factor IXa (human, UniProt P00740 47-191; P00740 227-461); assay: cell-based or functional assay
Bridge positions count the residues as written; N and C are the ends. Square brackets hold non-standard residues; d marks the D form. Primed or numbered codes have the meaning given here. Ends that are not written are not given here. PEG4′ = PEG4 spacer

| Binder | EC50 [µM], FXa generation assay |
| --- | --- |
| GEGGGKLSCVAIQCGLFKGLGR | > 50 µM |
| KEGFAQLPCLVCQGGLFSPRAI | > 20 µM |
| [PEG4′]RRAPGKLTCLASYCWLFWTGIA (disulfide 10-15 (inferred); not fully specified (C-terminus); printed as PEG4-RRAPGKLTCLASYCWLFWTGIA) [PEG4-RRAPGKLTCLASYCWLFWTGIA] | < 0.5 µM |
| KLTCLASYXWLF (not fully specified; Pen 9) [KLTCLASY-Pen-WLF] | > 20 µM |
| SKQARPISPD[dR]RAAGKLTCLASYCWLFWTGIA (not fully specified; printed as SKQARPISPDrRAAGKLTCLASYCWLFWTGIA; cysteine pairing not given here) [SKQARPISPDrRAAGKLTCLASYCWLFWTGIA] | > 1 µM |
| SKQGAPISPD[dR]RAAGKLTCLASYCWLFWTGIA (not fully specified; printed as SKQGAPISPDrRAAGKLTCLASYCWLFWTGIA; cysteine pairing not given here) [SKQGAPISPDrRAAGKLTCLASYCWLFWTGIA] | < 0.5 µM |
| QLTCLASYCGGV | > 20 µM |
| RKAPGKLQCLASYCWLFWTGIA | > 1 µM |
| KLTCLASYCWLA | < 0.5 µM |
| PRIRTVGPGSRSASGKLTCLASYCWLFFTGIA | < 0.5 µM |
| PSGWAGWAPGRREPGKLTCLASYCWLFWTGIA [PSGWAGWAPG RREPG KLTCLASYCWLFWTGIA] | > 1 µM |
| RRAPGKLTKLASYDWLFWTGIA-NH2 [RRAPGKLT-Lys-LASY-Asp-WLFWTGIA-CONH2] | > 1 µM |
| LRTQPKVTGLASCSGLVNCSRD | > 20 µM |

Data origin, for the record: patent US20140303084A1
